- SYSTEM NAME: human cannabinoid receptor 1 (huCB1), full length, expressed on cells (human, UniProt P21554 1-472)
- Sequence (P21554 whole entry): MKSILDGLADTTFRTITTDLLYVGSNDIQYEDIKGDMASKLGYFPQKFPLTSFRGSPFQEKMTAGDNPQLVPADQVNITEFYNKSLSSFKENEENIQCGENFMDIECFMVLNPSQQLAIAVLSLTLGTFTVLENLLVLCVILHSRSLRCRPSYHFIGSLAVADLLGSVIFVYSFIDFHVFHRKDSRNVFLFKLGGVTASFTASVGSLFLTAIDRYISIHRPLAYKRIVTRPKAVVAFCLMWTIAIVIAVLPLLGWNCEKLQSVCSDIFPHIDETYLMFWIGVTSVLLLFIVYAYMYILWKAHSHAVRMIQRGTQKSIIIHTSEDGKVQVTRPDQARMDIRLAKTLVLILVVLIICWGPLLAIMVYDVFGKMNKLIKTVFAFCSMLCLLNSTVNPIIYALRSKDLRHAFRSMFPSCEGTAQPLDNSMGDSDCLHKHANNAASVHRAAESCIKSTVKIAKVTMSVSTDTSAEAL
- PROTOCOL DESCRIPTION: cell-based or functional assay
Let's look at some binders and their measured Mean IC50, -fold vs Rimo.
TEST READOUT: Mean IC50, -fold vs Rimo (fold vs Rimonabant)

binder="LIBC528169-1 (antibody, V domains shown) VH: QVQLQESGPGLVKPSQTLSLTCTVSGGSIRRGGDYWSWIRQHPGKGLEWIGHIYQSGSTKYNPSFEDRATISVNTYKNQFSLKLSSVTAADTAVYYCARDYDILTGYSYYYYGMDVWGQGTTVTVSS VL: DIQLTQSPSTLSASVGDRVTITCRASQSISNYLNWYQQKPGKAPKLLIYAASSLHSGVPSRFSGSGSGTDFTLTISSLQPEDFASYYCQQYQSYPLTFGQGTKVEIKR" test_readout="Mean IC50, -fold vs Rimo" value_observed=2.6
binder="LIBC527869-1 (antibody, V domains shown) VH: QVQLQESGPGLVKPSQTLSLTCTVSGGNIRRGGDYWAWIRQHPGKGLEWIGHIYHTGKTNYNPSFKGRATISVKTYKNQFSLKLSSVTAADTAVYYCARNYDTLSGNSYYYYGMDVWGQGTTVTVSS VL: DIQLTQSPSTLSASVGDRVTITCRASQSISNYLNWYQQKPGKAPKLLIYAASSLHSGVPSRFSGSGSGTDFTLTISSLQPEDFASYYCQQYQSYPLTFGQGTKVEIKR" test_readout="Mean IC50, -fold vs Rimo" value_observed=15.7
binder="LIBC523670-1 (antibody, V domains shown) VH: QVQLQESGPGLVKPSQTLSLTCTVSGGSIRRGGDYWAWIRQHPGKGLEWIGHVYQTGQTAYNPNLESRATISVNTYKNQFSLKLSSVTAADTAVYYCARNYDVLSGYSYYYYGMDVWGQGTTVTVSS VL: DIVMTQSPLSLPVTPGEPASISCRSSQSLLTSYGANYLDWYLQKPGQSPQLLIYQGSNRASGVPDRFSGSGSGTDFTLKISRVEAEDVGVYYCMQALQIPRTFGQGTKVEIKR" test_readout="Mean IC50, -fold vs Rimo" value_observed=2.04
binder="LIBC523868-1 (antibody, V domains shown) VH: QVQLQESGPGLVKPSQTLSLTCTVSGGSIRRGGDYWSWIRQHPGKGLEWIGHVYYEGSTAYNPSFEDRATISVNTYKNQFSLKLSSVTAADTAVYYCARDYDILTGYSYYYYGMDVWGQGTTVTVSS VL: DIVMTQSPLSLPVTPGEPASISCRSSQSLLTSYGINYVDWYLQKPGQSPQLLIYLGSNRASGVPDRFSGSGSGTDFTLKISRVEAEDVGVYYCMQARQIPRTFGQGTKVEIKR" test_readout="Mean IC50, -fold vs Rimo" value_observed=2.53
binder="LIBC527968-1 (antibody, V domains shown) VH: QVQLQESGPGLVKPSQTLSLTCTVSGGSIRRGGDYWSWIRQHPGKGLEWIGHIYQSGSTKYNPSFKDRATISVNTYKNQFSLKLSSVTAADTAVYYCARDYDILTGYSYYYYGMDVWGQGTTVTVSS VL: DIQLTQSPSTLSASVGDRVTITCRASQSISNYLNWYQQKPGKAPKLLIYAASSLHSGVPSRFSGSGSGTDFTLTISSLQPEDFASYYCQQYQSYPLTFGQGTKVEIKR" test_readout="Mean IC50, -fold vs Rimo" value_observed=1.34
